Assay: Study TMX-99-001: febuxostat plasma pharmacokinetics
Assay type: in vivo, human
Conditions: human, plasma, oral, 40 mg, IR 40 mg single dose; mean
value-type: MRT inf (h)
Give the value, in units of h, as a plain number.

What does the record list as MRT inf for Cc1nc(-c2ccc(OCC(C)C)c(C#N)c2)sc1C(=O)O [Febuxostat] ?
4.54

---

Experiment: Study TMX-99-001: febuxostat plasma pharmacokinetics
Format: in vivo, human
Conditions: human, plasma, oral, 160 mg, IR 160 mg single dose; mean; read-out: AUC4-24
value-type: AUC (µg·h/mL)
Give the value, in units of µg·h/mL, as a plain number.

What does the record list as AUC for Cc1nc(-c2ccc(OCC(C)C)c(C#N)c2)sc1C(=O)O [Febuxostat] ?
5.84
